tested on: IGROV1 complex spheroids (HUVEC, MSC), viability % test/control; experiment: Anticancer human tumor IGROV1 cell line growth inhibition [GQUAD]; conditions: second compound 0.1 µM; first compound 0.316 µM; hits give low values;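 note: spheroids exposed to compounds for 7 days before readout; 100% = DMSO vehicle control viability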
Ranges used to classify viability, T/C: band 1 (below 9%), band 2 (9% to below 70%), band 3 (70% or more)

Request: Class label required: C#Cc1c(F)ccc2cc(O)cc(-c3ncc4c(N5CC6CCC(C5)N6)nc(OCC56CCCN5CC(F)C6)nc4c3F)c12 (stereo unspecified) + CN(C)c1ccc(Nc2c3ccc(NC(=O)CCN4CCCC4)cc3nc3cc(NC(=O)CCN4CCCC4)ccc23)cc1
Response: band 3

Request: Class label required: COc1ccc([C@@H](O)c2cc(-c3ncnc4cc(N5CCOCC5)ccc34)c(F)cc2Cl)nn1 + Cc1cnc(CNC(=O)c2c(=O)c3ccc(N4CCCN(C)CC4)nc3n3c2sc2ccccc23)cn1
Response: band 2

Request: Class label required: Nc1ccn(C2OC(CO)C(O)C2(F)F)c(=O)n1 (stereo unspecified) + Cc1cnc(CNC(=O)c2c(=O)c3ccc(N4CCCN(C)CC4)nc3n3c2sc2ccccc23)cn1
Response: band 1

Request: Class label required: CCCS(=O)(=O)Nc1ccc(F)c(C(=O)c2c[nH]c3ncc(-c4ccc(Cl)cc4)cc23)c1F + Cc1[nH]c2ccc(F)cc2c1-c1nc2c3cccnc3c3ncccc3c2[nH]1
Response: band 3

Request: Class label required: CC1COCCN1c1cc(C2(S(C)(=N)=O)CC2)nc(-c2ccnc3[nH]ccc23)n1 (stereo unspecified) + Cc1[nH]c2ccc(F)cc2c1-c1nc2c3cccnc3c3ncccc3c2[nH]1
Response: band 3

Request: Class label required: O=C(NO)c1cnc(N2CCN(S(=O)(=O)c3ccc4ccccc4c3)CC2)nc1 + Cc1[nH]c2ccc(F)cc2c1-c1nc2c3cccnc3c3ncccc3c2[nH]1
Response: band 2

---
Request: Class label required: Nc1ccn(C2OC(CO)C(O)C2(F)F)c(=O)n1 (stereo unspecified) + CN(C)c1ccc(Nc2c3ccc(NC(=O)CCN4CCCC4)cc3nc3cc(NC(=O)CCN4CCCC4)ccc23)cc1
Response: band 1

Request: Class label required: O=C(NO)c1cnc(N2CCN(S(=O)(=O)c3ccc4ccccc4c3)CC2)nc1 + CN(C)c1ccc(Nc2c3ccc(NC(=O)CCN4CCCC4)cc3nc3cc(NC(=O)CCN4CCCC4)ccc23)cc1
Response: band 1

Request: Class label required: COc1ccc([C@@H](O)c2cc(-c3ncnc4cc(N5CCOCC5)ccc34)c(F)cc2Cl)nn1 + CN(C)c1ccc(Nc2c3ccc(NC(=O)CCN4CCCC4)cc3nc3cc(NC(=O)CCN4CCCC4)ccc23)cc1
Response: band 3

The values you see were collected from PubChem BioAssay AID2060486.
